# pEC50 per record follows
Test system: hepatocellular carcinoma cell line Hub-7
TEST: Cell proliferation assay, Hub-7 (CELL-TITER GLO)
Assay type: cell-based
MEASUREMENT_SETUP: Hub-7 cells, 24 h incubation, cell viability by CELL-TITER GLO, top concentration 10 μM; read-out: EC50, Inhibition of Hub-7 Cell Proliferation
pEC50: −log10 of the molar value.

Below, 5 compounds whose answers are already recorded.
# pEC50 (compound: C#Cc1nc(C(=O)NCc2ccc3ncsc3c2)cs1 [Compound C66] ) is 5.30 to 6.00

# pEC50 (compound: C#Cc1nc(NC(=O)NCc2ccc(-c3cccc4c3S(=O)(=O)CC4O)cc2)cs1 (stereo not drawn) [Compound A2] ) is 5.30 to 6.00

# pEC50 (compound: C#Cc1nc(C(=O)NCc2cccc(C(=O)OC)c2)cs1 [Compound C124] ) is 6.00 to 6.70

# pEC50 (compound: C#Cc1nc(C(=O)NCCc2cccc(S(C)(=O)=O)c2)cs1 [Compound C105] ) is 5.30 to 6.00

# pEC50 (compound: C#Cc1nc(C(=O)NCCc2cccc([N+](=O)[O-])c2)cs1 [Compound C87] ) is 6.00 to 6.70

// below: pEC50 requested for another compound
# pEC50 (compound: C#Cc1nc(C(=O)NCCc2cccc(-c3cccc4[nH]ccc34)c2)cs1 [Compound C36] ) is 6.00 to 6.70

----------
Test system: hepatocellular carcinoma cell line Hub-7
TEST: Cell proliferation assay, Hub-7 (CELL-TITER GLO)
Assay type: cell-based
MEASUREMENT_SETUP: Hub-7 cells, 24 h incubation, cell viability by CELL-TITER GLO, top concentration 10 μM; read-out: EC50, Inhibition of Hub-7 Cell Proliferation
pEC50: −log10 of the molar value.
OBSERVATION_TYPE: pEC50

# pEC50 (compound: C#Cc1nc(C(=O)NCCc2ccc(-c3cccc4ccnc(O)c34)cc2)cs1 [Compound C16] ) is 6.00 to 6.70

# pEC50 (compound: C#Cc1nc(NC(=O)Cc2ccccc2)cs1 [Compound C77] ) is 6.00 to 6.70

# pEC50 (compound: C#Cc1nc(C(=O)NCc2ccccc2Cl)cs1 [Compound C143] ) is 6.00 to 6.70

# pEC50 (compound: C#Cc1nc(C(=O)NCCc2cccc(-c3cccc4c3cnn4C)c2)cs1 [Compound C30] ) is 5.30 to 6.00

# pEC50 (compound: C#Cc1nc(C(=O)NCc2ccc(-c3cscn3)cc2)cs1 [Compound C55] ) is 6.00 to 6.70

More entries:
# pEC50 (compound: C#Cc1csc(C(=O)NCc2ccccc2)n1 [Compound C145, N-Benzyl-4-ethynylthiazole-2-carboxamide] ) is < 5.30

# pEC50 (compound: C#Cc1nc(C(=O)N2CCN(c3ccc(C#N)cc3)CC2)cs1 [Compound D26] ) is 6.00 to 6.70

# pEC50 (compound: C#Cc1nc(C(=O)N(C)CCc2ccc([N+](=O)[O-])cc2)cs1 [Compound C100] ) is 6.00 to 6.70

# pEC50 (compound: C#Cc1nc(C(=O)NCc2cccc(C#N)c2)cs1 [Compound C127] ) is 6.00 to 6.70

# pEC50 (compound: C#Cc1nc(C(=O)NCCc2ccc(-c3ccccc3C(=O)NC)cc2)cs1 [Compound C12] ) is 5.30 to 6.00

----------
Tested on: lung cancer cell line NCI-H82
TEST: Cell proliferation assay, NCI-H82 (CELL-TITER GLO)
Assay type: cell-based
MEASUREMENT_SETUP: Homo sapiens, NCI-H82, 72 h, NCI-H82 cells, 72 h incubation, cell viability by CELL-TITER GLO, top concentration 1 μM; read-out: EC50, Inhibition of NCl-H82 Cell Proliferation
pEC50: −log10 of the molar value.
OBSERVATION_TYPE: pEC50

# pEC50 (compound: C#Cc1nc(NC(=O)N[C@@H](CO)c2ccc(-c3cccc4ncsc34)cc2)cs1 [Compound A40] ) is ≥ 6.70

// below: pEC50 requested for another compound
# pEC50 (compound: C#Cc1nc(NC(=O)N[C@@H](CO)c2ccc(N3CCCCC3=O)cc2)cs1 [Compound A131] ) is ≥ 6.70

----------
# EC50 per record follows
Test system: lung cancer cell line NCI-H82
TEST: Cell proliferation assay, NCI-H82 (CELL-TITER GLO)
Type: cell-based
MEASUREMENT_SETUP: Homo sapiens, NCI-H82, 72 h, NCI-H82 cells, 72 h incubation, cell viability by CELL-TITER GLO, top concentration 1 μM; read-out: EC50, Inhibition of NCl-H82 Cell Proliferation

Here `C#Cc1nc(NC(=O)N[C@H](C(N)=O)c2ccc(-c3cccc4ncsc34)cc2)cs1` was tested on lung cancer cell line NCI-H82, and its EC50 came to ≤ 200 nM

Here `C#Cc1nc(NC(=O)NCc2ccc(-c3cccc4nc(OCCO)nc(O)c34)cc2)cs1` was tested on lung cancer cell line NCI-H82, and its EC50 came to ≤ 200 nM

Here `C#Cc1nc(NC(=O)N[C@@H](CO)c2ccc(-c3cccnc3N3CC(F)(F)C3)cc2)cs1` was tested on lung cancer cell line NCI-H82, and its EC50 came to ≤ 200 nM

More entries:
Here `C#Cc1nc(NC(=O)N[C@@H](COC(N)=O)c2ccc(-c3cc(C4(C#N)CC4)ccn3)cc2)cs1` was tested on lung cancer cell line NCI-H82, and its EC50 came to ≤ 200 nM

Here C#Cc1nc(NC(=O)N[C@@H](CO)c2ccc(C3CCCN(C)C3)cc2)cs1 (stereo partly shown) was tested on lung cancer cell line NCI-H82, and its EC50 came to 200 to 1000 nM

Here `C#Cc1nc(NC(=O)N2CCN(c3ccc(-c4cccc5ncsc45)cc3)C[C@H]2CO)cs1` was tested on lung cancer cell line NCI-H82, and its EC50 came to ≤ 200 nM

Here `C#Cc1nc(NC(=O)N(C)[C@@H](COC(N)=O)c2ccc(-c3cccc(N4CCCC4)n3)cn2)cs1` was tested on lung cancer cell line NCI-H82, and its EC50 came to ≤ 200 nM

Here `C#Cc1nc(NC(=O)NCc2ccc(-c3cc(N4CCCC4)ccn3)cc2)cs1` was tested on lung cancer cell line NCI-H82, and its EC50 came to 200 to 1000 nM

Here `C#Cc1nc(NC(=O)N[C@@H](CO)C(=O)N2CCN(c3ccccc3C#N)CC2)cs1` was tested on lung cancer cell line NCI-H82, and its EC50 came to ≤ 200 nM

Here `C#Cc1nc(NC(=O)N[C@@H](CO)c2ccc(C3=C(C#N)CCCC3)cc2)cs1` was tested on lung cancer cell line NCI-H82, and its EC50 came to ≤ 200 nM

Here `C#Cc1nc(NC(=O)N[C@@H](CO)c2ccc(-c3cccc(N4CC(F)(F)C4)c3)cc2)cs1` was tested on lung cancer cell line NCI-H82, and its EC50 came to ≤ 200 nM

Here `C#Cc1nc(NC(=O)N[C@@H](CO)C(=O)N2CCC(F)(F)CC2)cs1` was tested on lung cancer cell line NCI-H82, and its EC50 came to ≤ 200 nM

Here `C#Cc1nc(NC(=O)N[C@@H](CO)c2ccc(-c3cccc(S(C)(=O)=O)c3)cc2)cs1` was tested on lung cancer cell line NCI-H82, and its EC50 came to ≤ 200 nM

Here C#Cc1nc(NC(=O)N(C)[C@@H](COC(N)=O)c2ccc(-c3ccc(F)cc3C3CC3(F)F)cn2)cs1 (stereo partly shown) was tested on lung cancer cell line NCI-H82, and its EC50 came to ≤ 200 nM

Here `C#Cc1nc(NC(=O)NCC(=O)N2CCC(c3ccccc3C#N)CC2)cs1` was tested on lung cancer cell line NCI-H82, and its EC50 came to 200 to 1000 nM

Here `C#Cc1nc(NC(=O)N[C@@H](CS(N)(=O)=O)c2ccc(-c3ccc(F)c4ncsc34)c(Cl)c2)cs1` was tested on lung cancer cell line NCI-H82, and its EC50 came to ≤ 200 nM

----------
Tested on: hepatocellular carcinoma cell line Hub-7
TEST: Cell proliferation assay, Hub-7 (CELL-TITER GLO)
Assay type: cell-based
MEASUREMENT_SETUP: Hub-7 cells, 24 h incubation, cell viability by CELL-TITER GLO, top concentration 10 μM; read-out: EC50, Inhibition of Hub-7 Cell Proliferation
# EC50 per record follows

Below, 5 molecules whose answers are already recorded.
# EC50 (molecule: `C#Cc1nc(NC(=O)NCc2ccc(-c3ccccc3)cc2)cs1` ) is ≤ 200 nM

# EC50 (molecule: `C#Cc1nc(C(=O)NCCc2cccc(-c3cccnc3)c2)cs1` ) is 1000 to 5000 nM

# EC50 (molecule: `C#Cc1nc(C(=O)NCc2ccccc2C(=O)OC)cs1` ) is 200 to 1000 nM

# EC50 (molecule: `C#Cc1nc(C(=O)NCCc2cccc(C(=O)OC)c2)cs1` ) is 200 to 1000 nM

# EC50 (molecule: N#Cc1nc(C(=O)NCc2ccccc2)cs1 [Compound C90, N-Benzyl-2-cyanothiazole-4-carboxamide] ) is > 5000 nM

More entries:
# EC50 (molecule: `C#Cc1nc(C(=O)NCCc2ccc(-c3cccc4ncncc34)cc2)cs1` ) is ≤ 200 nM

# EC50 (molecule: `C#Cc1nc(NC(=O)N2CCN(c3ccc(-c4cccc5ncsc45)cc3)CC2)cs1` ) is ≤ 200 nM

# EC50 (molecule: C#Cc1nc(C(=O)N2CCN(c3ccc(-c4c(C)ccc5c4cnn5C)cc3)CC2)cs1 [Compound D1] ) is ≤ 200 nM

# EC50 (molecule: `C#Cc1nc(C(=O)N2CCN(c3ccc(-c4cccc5ncsc45)cc3Cl)CC2)cs1` ) is ≤ 200 nM

# EC50 (molecule: `C#Cc1nc(NC(=O)NCc2ccc(-c3cccc(N4CC[C@H](O)C4)c3)cc2)cs1` ) is 200 to 1000 nM

# EC50 (molecule: `C#Cc1nc(C(=O)NCc2ncccc2Cl)cs1` ) is 1000 to 5000 nM
